experiment: IV and PO pharmacokinetic studies of prodrug salts (Iab, Ibb, Icb) in the dog, with historical parent data; format: in vivo, beagle dogs; conditions: plasma, historical parent, PO 5 mg/kg, read-out: AUCtot (μM · hr), PO
READOUT_TYPE: AUC (µM·h)
Answers are plain numbers, in µM·h.

Noted for COc1ncc(OC)c2c(C(=O)C(=O)N3CCN(C(=O)c4ccccc4)CC3)c[nH]c12 : its AUC reads 47

* * *

test: Oral dose escalation study in rats (Study D of Ica; historical Study E of IVc); assay type: in vivo; conditions: male, Sprague-Dawley, rat, plasma, po, 5 mg/kg
READOUT_TYPE: Tmax
Field: value (include unit after the number)

Noted for COc1cnc(-n2cnc(C)n2)c2[nH]cc(C(=O)C(=O)N3CCN(C(=O)c4ccccc4)CC3)c12 : its Tmax reads 30 min

# credit: patent US20150315218A1
